These data points were gathered from the supplement of paper PMC4862054.

- Tested on: HDQ-P1
- assay_protocol: normalised viability (% of control), CellTiter-Blue; higher = more viable cells (about 100 = DMSO control)
- measurement_conditions: 10 nM; incubation time: 72 h

molecule | system_under_test | normalised viability / %
COc1ccc(S(=O)(=O)Nc2cccnc2Nc2ccc(O)cc2)cc1 [ABT-751] | HDQ-P1 | 106
CC[C@H](CO)Nc1nc(NCc2ccccc2)c2ncn(C(C)C)c2n1 [Roscovitine] | HDQ-P1 | 120
COc1cc(Nc2c(C#N)cnc3cc(OCCCN4CCN(C)CC4)c(OC)cc23)c(Cl)cc1Cl [Bosutinib] | HDQ-P1 | 128
CO[C@@]12[C@H](COC(N)=O)C3=C(C(=O)C(C)=C(N)C3=O)N1C[C@@H]1N[C@@H]12 [Mitomycin C] | HDQ-P1 | 103
CC(C)(C)NC(=O)[C@H]1CC[C@H]2[C@@H]3CC[C@H]4NC(=O)C=C[C@]4(C)[C@H]3CC[C@]12C [Finasteride] | HDQ-P1 | 106

###

# normalised viability per entry
- Test system: MDA-MB-453
- assay_protocol: normalised viability (% of control), CellTiter-Blue; higher = more viable cells (about 100 = DMSO control)
- measurement_conditions: incubation time: 72 h

compound | system_under_test | normalised viability
CO[C@@]12[C@H](COC(N)=O)C3=C(C(=O)C(C)=C(N)C3=O)N1C[C@@H]1N[C@@H]12 [Mitomycin C] (10000 nM) | MDA-MB-453 | 5.36%
CCN(CC)CCCC(C)Nc1ccnc2cc(Cl)ccc12 (stereo not given) [Chloroquine] (990 nM) | MDA-MB-453 | 98.4%
Nc1ccn([C@@H]2O[C@H](CO)[C@@H](O)C2(F)F)c(=O)n1 [Gemcitabine] (1000 nM) | MDA-MB-453 | 1.2%
Cc1cc(Nc2nc(N[C@@H](C)c3ncc(F)cn3)ncc2Cl)[nH]n1 [AZD1480] (1000 nM) | MDA-MB-453 | 56.6%
CC(C)C[C@H](NC(=O)[C@@H](COC(C)(C)C)NC(=O)[C@H](Cc1ccc(O)cc1)NC(=O)[C@H](CO)NC(=O)[C@H](Cc1c[nH]c2ccccc12)NC(=O)[C@H](Cc1cnc[nH]1)NC(=O)[C@@H]1CCC(=O)N1)C(=O)N[C@@H](CCCNC(=N)N)C(=O)N1CCC[C@H]1C(=O)NNC(N)=O [Goserelin] (10000 nM) | MDA-MB-453 | 89.8%

###

- Test system: HDQ-P1
- assay_protocol: normalised viability (% of control), CellTiter-Blue; higher = more viable cells (about 100 = DMSO control)
- measurement_conditions: incubation time: 72 h
result_type: normalised viability (%)

compound | result_type | quantity_unit | data_value
CC(O)(CS(=O)(=O)c1ccc(F)cc1)C(=O)Nc1ccc(C#N)c(C(F)(F)F)c1 (centres undefined) [Bicalutamide] (300 nM) | normalised viability | % | 55
CNC(=O)c1ccccc1Sc1ccc2c(/C=C/c3ccccn3)n[nH]c2c1 [Axitinib] (300 nM) | normalised viability | % | 40.1
CC(C)C[C@H](NC(=O)[C@@H](COC(C)(C)C)NC(=O)[C@H](Cc1ccc(O)cc1)NC(=O)[C@H](CO)NC(=O)[C@H](Cc1c[nH]c2ccccc12)NC(=O)[C@H](Cc1cnc[nH]1)NC(=O)[C@@H]1CCC(=O)N1)C(=O)N[C@@H](CCCNC(=N)N)C(=O)N1CCC[C@H]1C(=O)NNC(N)=O [Goserelin] (300 nM) | normalised viability | % | 91.4
CC(C)(C)NC(=O)[C@H]1CC[C@H]2[C@@H]3CC[C@H]4NC(=O)C=C[C@]4(C)[C@H]3CC[C@]12C [Finasteride] (300 nM) | normalised viability | % | 109
